B1: TPR 5TU (parent)
chain: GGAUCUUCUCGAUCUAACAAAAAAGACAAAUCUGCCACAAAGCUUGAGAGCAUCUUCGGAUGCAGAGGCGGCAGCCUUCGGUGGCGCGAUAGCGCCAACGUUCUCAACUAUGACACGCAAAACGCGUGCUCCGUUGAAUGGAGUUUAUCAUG

# Variants of: B1
# measurement_description: polymerase ribozyme fitness, log enrichment relative to wild type (log ratio); higher = more active; in vitro selection for triplet polymerase activity
This sample holds only a part of the variants without activity.
Assign fulfilled to entries whose polymerase ribozyme fitness (log ratio) meets or exceeds -3; assign not fulfilled to the rest.

[[record]]
mutation_code = "A12U C116G"
group_label = "fulfilled"


API: above_or_equal(metric=polymerase ribozyme fitness (log ratio), cutoff=-3) for item A47C C57A G84C G86U U146C C149U
not fulfilled

API: above_or_equal(metric=polymerase ribozyme fitness (log ratio), cutoff=-3) for item A150U
fulfilled

API: above_or_equal(metric=polymerase ribozyme fitness (log ratio), cutoff=-3) for item U55G C114U
fulfilled

API: above_or_equal(metric=polymerase ribozyme fitness (log ratio), cutoff=-3) for item A22U G86C
not fulfilled

API: above_or_equal(metric=polymerase ribozyme fitness (log ratio), cutoff=-3) for item U9A G59A A60C C93U
not fulfilled

API: above_or_equal(metric=polymerase ribozyme fitness (log ratio), cutoff=-3) for item G11C G42A G88C U102C G126U
not fulfilled

API: above_or_equal(metric=polymerase ribozyme fitness (log ratio), cutoff=-3) for item A23U C43A C69G C99G U139A U144A
not fulfilled

API: above_or_equal(metric=polymerase ribozyme fitness (log ratio), cutoff=-3) for item A52U C54U A97U
fulfilled

API: above_or_equal(metric=polymerase ribozyme fitness (log ratio), cutoff=-3) for item G84U G117U C123U G141A U146A
not fulfilled

API: above_or_equal(metric=polymerase ribozyme fitness (log ratio), cutoff=-3) for item C8U A24U A30U U90A G92C
not fulfilled

API: above_or_equal(metric=polymerase ribozyme fitness (log ratio), cutoff=-3) for item C5G U82A C95U
fulfilled

API: above_or_equal(metric=polymerase ribozyme fitness (log ratio), cutoff=-3) for item U15C G34C C57A G84U A98U
fulfilled

API: above_or_equal(metric=polymerase ribozyme fitness (log ratio), cutoff=-3) for item G84A G124A
fulfilled

API: above_or_equal(metric=polymerase ribozyme fitness (log ratio), cutoff=-3) for item A39U A73U
not fulfilled

API: above_or_equal(metric=polymerase ribozyme fitness (log ratio), cutoff=-3) for item G42A C51G C75G C99U
not fulfilled

API: above_or_equal(metric=polymerase ribozyme fitness (log ratio), cutoff=-3) for item C32G C87U A107U A113C C116A
not fulfilled

API: above_or_equal(metric=polymerase ribozyme fitness (log ratio), cutoff=-3) for item A29U U53G G81A G88C
not fulfilled
